Some compounds, each annotated with its measured inhibition.
Molecular target: SGK1 (human)
Experiment: Caliper, Mobility shift assay off-chip
Conditions: compound 0.02 µM
Note: unit % is implicit; provide only the numeric part.

Worked examples follow.
COc1cc2c(Oc3ccc4[nH]c(C)cc4c3F)ncnc2cc1OCCCN1CCCC1	5.2
Cc1ccc(Nc2nccc(N(C)c3ccc4c(C)n(C)nc4c3)n2)cc1S(N)(=O)=O	-0.7
CNC(=O)c1ccccc1Sc1ccc2c(/C=C/c3ccccn3)n[nH]c2c1	-1.8

API: the following record is the query input.
Could you share which inhibition value was measured for CNC(=O)c1cc(Oc2ccc(NC(=O)Nc3ccc(Cl)c(C(F)(F)F)c3)cc2)ccn1 ? -0.6

----------
Some compounds, each annotated with its measured inhibition.
Molecular target: LTK (human) (UniProt P29376)
Sequence (P29376 whole entry, looked up): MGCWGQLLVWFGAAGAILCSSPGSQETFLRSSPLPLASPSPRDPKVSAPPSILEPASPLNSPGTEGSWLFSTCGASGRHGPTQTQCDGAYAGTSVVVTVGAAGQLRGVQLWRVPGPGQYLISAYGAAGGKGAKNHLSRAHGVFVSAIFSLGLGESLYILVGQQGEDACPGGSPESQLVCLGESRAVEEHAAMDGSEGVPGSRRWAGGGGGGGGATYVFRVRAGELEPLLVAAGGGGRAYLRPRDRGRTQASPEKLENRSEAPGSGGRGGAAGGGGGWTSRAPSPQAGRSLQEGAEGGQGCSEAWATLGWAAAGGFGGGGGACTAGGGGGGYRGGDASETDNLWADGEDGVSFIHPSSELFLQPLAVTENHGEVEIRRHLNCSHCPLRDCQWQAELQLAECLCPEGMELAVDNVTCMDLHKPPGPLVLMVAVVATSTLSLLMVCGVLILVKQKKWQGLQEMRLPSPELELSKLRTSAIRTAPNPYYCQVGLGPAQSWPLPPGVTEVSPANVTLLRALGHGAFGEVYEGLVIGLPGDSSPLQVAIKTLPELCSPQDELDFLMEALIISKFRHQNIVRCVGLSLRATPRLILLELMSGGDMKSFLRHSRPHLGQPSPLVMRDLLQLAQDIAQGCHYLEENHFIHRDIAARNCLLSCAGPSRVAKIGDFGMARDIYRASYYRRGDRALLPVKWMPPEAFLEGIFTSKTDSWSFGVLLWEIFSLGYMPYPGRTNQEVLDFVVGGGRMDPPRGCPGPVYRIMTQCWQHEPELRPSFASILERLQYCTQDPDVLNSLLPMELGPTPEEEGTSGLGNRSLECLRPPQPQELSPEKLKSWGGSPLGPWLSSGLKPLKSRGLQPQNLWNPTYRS
Assay: Caliper, Mobility shift assay off-chip
Conditions: compound 0.2 µM
Note: unit % is implicit; provide only the numeric part.

Worked examples follow.
CCN(CC)CCNC(=O)c1c(C)[nH]c(/C=C2\C(=O)Nc3ccc(F)cc32)c1C	69
CNC(=O)c1cc(Oc2ccc(NC(=O)Nc3ccc(Cl)c(C(F)(F)F)c3)cc2)ccn1	7.4
Cc1ccc(Nc2nccc(N(C)c3ccc4c(C)n(C)nc4c3)n2)cc1S(N)(=O)=O	11.9

API: the following record is the query input.
Could you share which inhibition value was measured for COc1cc2c(Oc3ccc4[nH]c(C)cc4c3F)ncnc2cc1OCCCN1CCCC1 ? 5.6

----------
Target: EPHB2 (human)
Assay: Caliper, Mobility shift assay off-chip
Settings: compound 0.2 µM
reported endpoint: inhibition
Note: a bare number is incomplete; add the unit.

COc1cc2c(Oc3ccc4[nH]c(C)cc4c3F)ncnc2cc1OCCCN1CCCC1	8.7%
Cc1ccc(Nc2nccc(N(C)c3ccc4c(C)n(C)nc4c3)n2)cc1S(N)(=O)=O	-2.7%
CCN(CC)CCNC(=O)c1c(C)[nH]c(/C=C2\C(=O)Nc3ccc(F)cc32)c1C	22.2%

# query: inhibition | item CNC(=O)c1cc(Oc2ccc(NC(=O)Nc3ccc(Cl)c(C(F)(F)F)c3)cc2)ccn1 | system: EPHB2 (human) 14.4%

----------
Target: GSK3A (human)
Experiment: Caliper, Mobility shift assay off-chip
Conditions: compound 0.2 µM
Some compounds, each annotated with its measured inhibition.
Note: unit % is implicit; provide only the numeric part.

Cc1ccc(Nc2nccc(N(C)c3ccc4c(C)n(C)nc4c3)n2)cc1S(N)(=O)=O	5.1

Could you share which inhibition value was measured for CCN(CC)CCNC(=O)c1c(C)[nH]c(/C=C2\C(=O)Nc3ccc(F)cc32)c1C ? 3.3

Could you share which inhibition value was measured for CNC(=O)c1cc(Oc2ccc(NC(=O)Nc3ccc(Cl)c(C(F)(F)F)c3)cc2)ccn1 ? 6.8

Could you share which inhibition value was measured for COc1cc2c(Oc3ccc4[nH]c(C)cc4c3F)ncnc2cc1OCCCN1CCCC1 ? 2.1

----------
Target: TNK2 (human)
Test: Caliper, Mobility shift assay off-chip
Conditions: compound 0.02 µM
reported endpoint: inhibition (%)
Note: unit % is implicit; provide only the numeric part.

CNC(=O)c1cc(Oc2ccc(NC(=O)Nc3ccc(Cl)c(C(F)(F)F)c3)cc2)ccn1	-5
CNC(=O)c1ccccc1Sc1ccc2c(/C=C/c3ccccn3)n[nH]c2c1	-8.8
Cc1ccc(Nc2nccc(N(C)c3ccc4c(C)n(C)nc4c3)n2)cc1S(N)(=O)=O	-5.7

Could you share which inhibition value was measured for COc1cc2c(Oc3ccc4[nH]c(C)cc4c3F)ncnc2cc1OCCCN1CCCC1 ? -6.7
